This listing pairs compounds with measured GI50.
tested on: SK-MEL-5 melanoma; assay: NCI tumour cell line growth inhibition, 48 h

Reported GI50 for CCCc1cc(=O)n2c(C(=O)Nc3cccc(C(=O)OCC)c3)c(C(=O)Nc3ccc(F)cc3)sc2n1 was 75.1 µM

Reported GI50 for COc1cc2c(cc1Cc1cccc(Cl)c1F)c(=O)c(C(=O)O)cn2[C@@H](CO)C(C)C was 2.85 µM

Reported GI50 for C=C1C(=O)O[C@H]2C[C@@H]1CC/C(C)=C/CC/C(C)=C/CC[C@@]2(C)O was 37.7 µM

Reported GI50 for COc1ccc(Sc2nc3cc(N)cc(N)c3nc2-c2ccccc2)cc1 was 24 µM

Reported GI50 for O=c1[nH]c(=O)c2cc3cc(C4CC(O)C(CO)O4)ccc3cc2[nH]1 (configuration not stated) was > 100 µM

Reported GI50 for CC[C@@]1(O)C(=O)OCc2c1cc1n(c2=O)Cc2cc3cccc([N+](=O)[O-])c3nc2-1 was 1.18 µM

Reported GI50 for Cc1cc(Nc2ncc3c(n2)N(C)C(=O)N(c2cc(NC(=O)c4cccc(C(F)(F)F)c4)ccc2C)C3)n(C)n1 was 0.283 µM
